# Test system: RK (rabbit kidney) cells
# test details: Cytotoxicity (MTT proliferation assay) against rabbit kidney cells
# Assay type: cell-based
# protocol conditions: Rabbit Kidney cells
readout label: IC50

> print(dat)
                                   compound  readout.label  readout.value
1  COc1ccc(C2c3ccc(O)c(C)c3OCC2c2ccc(O)cc2)cc1 (stereo not shown)           IC50        > 60 µM

* * *

# test details: Oral pharmacokinetics in female BALB/c mice
# Assay type: in vivo, mouse
# protocol conditions: female, BALB/c, mouse, faeces, po, 50 mg/kg, oral 50 mg/kg, Time 1 (head prints days); read-out: Faeces Free
readout label: concentration at 1 h (µM)

> print(dat)
                                   compound         readout.label  value.unit  readout.value
1  COc1ccc(C2c3ccc(O)c(C)c3OCC2c2ccc(O)cc2)cc1 (stereo not shown) [Compound 1]  concentration at 1 h          µM           1060

* * *

# Test system: CP70
# test details: MTT proliferation assay, ovarian CP70
# Type: cell-based
# protocol conditions: Ovarian CCP70, Table 2.1; read-out: cytoxicity (IC50)
readout label: IC50

> print(dat)
                                   compound  readout.value
1  COc1ccc(C2c3ccc(O)c(C)c3OCC2c2ccc(O)cc2)cc1 (stereo not shown) [Compound 1]        1700 nM

* * *

# test details: Oral pharmacokinetics in female BALB/c mice
# Assay type: in vivo, mouse
# protocol conditions: female, BALB/c, mouse, serum, 50 mg/kg; oral; read-out: t1/2
readout label: half-life

> print(dat)
                                   compound  readout.value
1  Oc1ccc(C2=Cc3ccc(O)cc3OC2)cc1 [Phenoxodiol, reference compound]        ~30 min

* * *

# test details: Oral pharmacokinetics in female BALB/c mice
# Assay type: in vivo, mouse
# protocol conditions: female, BALB/c, mouse, serum, po, 50 mg/kg, oral, after 1 hr; read-out: free concentration in sera
readout label: concentration at 1 hr (nM)

> print(dat)
                                   compound  value.unit  readout.value
1  COc1ccc(C2c3ccc(O)c(C)c3OCC2c2ccc(O)cc2)cc1 (stereo not shown)          nM           2400

* * *

# test details: Oral pharmacokinetics in female BALB/c mice
# Assay type: in vivo, mouse
# protocol conditions: female, BALB/c, mouse, serum, po, 50 mg/kg, oral, after 30 min; read-out: free concentration in sera
readout label: concentration at 30 min (µM)

> print(dat)
                                   molecule  readout.value
1  COc1ccc(C2c3ccc(O)c(C)c3OCC2c2ccc(O)cc2)cc1 (stereo not shown)            8.2

* * *

# test details: Oral pharmacokinetics in female BALB/c mice
# Type: in vivo, mouse
# protocol conditions: female, BALB/c, mouse, serum, 50 mg/kg; oral, sera; read-out: half life
readout label: half-life

> print(dat)
                                   compound  readout.label  readout.value
1  COc1ccc(C2c3ccc(O)c(C)c3OCC2c2ccc(O)cc2)cc1 (stereo not shown)      half-life        ~30 min

Reference for the values: patent US9381186B2
